Recorded values, source paper PMC10397247.

Assignment: determine reported interaction score for the given binders.
- Tested target: T1, 4H3112-bA
- T1 chain: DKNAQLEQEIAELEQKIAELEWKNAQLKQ
- Measurement notes: two-hybrid library CCNG1;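 note: natural log of median RNA to DNA barcode read ratio; higher means stronger binding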
Please state the value as a number alone, without comment.

Lab book: interaction score of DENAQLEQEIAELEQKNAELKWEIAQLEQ [4H1081-bA] noted as -0.897

Given item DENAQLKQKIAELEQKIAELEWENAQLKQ [4H1828-bA] , the value recorded as its interaction score is 1.15

Measured interaction score of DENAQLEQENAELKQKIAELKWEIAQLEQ [4H1257-bA] : -0.693

Per the records, this binder ( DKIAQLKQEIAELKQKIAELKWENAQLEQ [4H2667-bA] ) has interaction score equal to 0.96

The reported value for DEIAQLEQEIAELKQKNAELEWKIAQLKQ [4H118-bA] in terms of interaction score is 0.131

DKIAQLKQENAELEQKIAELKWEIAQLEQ [4H2729-bA] yielded interaction score of -0.141

get_value(item= DKIAQLKQKNAELKQEIAELEWEIAQLKQ [4H3010-bA] , readout=interaction score) returns -0.267

Entry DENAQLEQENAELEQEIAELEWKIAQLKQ [4H1158-bA] , interaction score reported as -0.0196

Documented interaction score of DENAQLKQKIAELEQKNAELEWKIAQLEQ [4H1845-bA] : -0.795

// interaction score lookup, binder = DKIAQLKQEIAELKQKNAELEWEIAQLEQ [4H2673-bA] , result: -0.873

get_value(item= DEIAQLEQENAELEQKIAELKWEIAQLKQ [4H170-bA] , readout=interaction score) returns -0.374

// recorded interaction score for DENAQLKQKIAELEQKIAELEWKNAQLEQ [4H1831-bA] : 0.716

The recorded interaction score for DEIAQLEQEIAELKQKIAELKWKNAQLKQ [4H112-bA] is 1.9

In plain terms, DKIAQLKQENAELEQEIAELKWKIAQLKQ [4H2702-bA] has a documented interaction score of 0.438
